- assayProtocol: probe aLefty2 binding to arrayed compounds – biochemical, biotinylated probe, 635/667 nm fluorescence, primary screen (AID 1094);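 further: score merges spot fluorescence near 667 nm with spot signal-to-noise ratio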
- conditionInfo: small-molecule microarray, higher = more signal
Output: class label from composite z-score. Mapping: bottom end = under -0.08, midrange = from -0.08 up to 0.07, top end = 0.07 and over

query: Into which category would you place Cc1ccc(S[C@]2(C(=O)O)CC(=O)N(C3CCCCC3)[C@@H]2c2ccc(CO)cc2)cc1 ?
result: bottom end

query: Into which category would you place C=CCNC(=O)[C@@H]1[C@H]2C(=O)O[C@H](c3ccccc3)[C@H](c3ccccc3)N2[C@H](c2ccc(O)cc2)[C@@]12C(=O)Nc1ccc(C#CCCO)cc12 ?
result: bottom end

query: Into which category would you place CC1CC/C=C\[C@H]2OC34C=CCN(Cc5ccccc5)C(=O)[C@H]3N(CCO)C(=O)[C@@H]4C2C(=O)O1 (stereo not given in full) ?
result: midrange

query: Into which category would you place COc1ccc(C#Cc2ccc3c(c2)[C@]2(C(=O)N3)[C@H](c3ccc(OCCO)cc3)N3[C@H](c4ccccc4)[C@H](c4ccccc4)OC(=O)[C@H]3[C@@H]2C(=O)N2CCN(c3ncccn3)CC2)cc1 ?
result: bottom end

query: Into which category would you place COC(=O)[C@@]1(Cc2ccc(OC)cc2)[C@H]2c3cc(C(=O)N(C)C)n(Cc4cc(F)c(F)c(F)c4)c3C[C@H]2CN1C(=O)c1ccccc1 ?
result: top end

query: Into which category would you place [N-]=[N+]=NCc1ccccc1C[C@]1(C(=O)NCCN2CCOCC2)COC(c2ccc(OCCCO)cc2)=N1 ?
result: midrange

query: Into which category would you place O=C1O[C@@H](c2ccccc2)[C@@H](c2ccccc2)N2[C@@H](c3ccc(O)cc3)[C@]3(C(=O)Nc4ccc(C#CC5(O)CCCCCC5)cc43)[C@@H](C(=O)N3CCN(c4ncccn4)CC3)[C@H]12 ?
result: bottom end

query: Into which category would you place C=CC[C@@]1(C(=O)NCCN2CCOCC2)N=C(c2ccc(OCCCO)cc2)O[C@@H]1c1ccccc1 ?
result: midrange

query: Into which category would you place C=CCNC(=O)[C@H]1[C@@H]2C(=O)O[C@@H](c3ccccc3)[C@@H](c3ccccc3)N2[C@@H](c2ccc(O)cc2)[C@]12C(=O)N(C(=O)OCCOC)c1ccc(C#CC3(O)CCCCCC3)cc12 ?
result: midrange

query: Into which category would you place C=C[C@@H](O)[C@H]1CC(c2ccccc2)=NO1 ?
result: midrange

query: Into which category would you place CN(C)C(=O)[C@@]1(CCC(=O)OC(C)(C)C)COC(c2ccc(OCCCO)cc2)=N1 ?
result: top end

query: Into which category would you place CCOC(=O)C[C@H]1[C@H](OC(=O)c2cc3ccccc3oc2=O)[C@@H](NC(=O)c2ccc3ccccc3n2)c2cc(OCCCO)ccc2N1C(=O)c1ccc2ccccc2n1 ?
result: midrange

query: Into which category would you place CC(C)C(CO)N1C(=O)[C@@H]2[C@H]3C(=O)OCC=C[C@H]3OC23C=CCN(CCN2CCOCC2)C(=O)[C@@H]13 (stereo not given in full) ?
result: bottom end

query: Into which category would you place CCCCC=C[C@@H](NC(=O)CCc1ccccc1)c1ccccc1 ?
result: top end

query: Into which category would you place Cc1ccc(S[C@]2(C(=O)O)CC(=O)N(Cc3ccccc3C(F)(F)F)[C@@H]2c2ccc(CO)cc2)cc1 ?
result: midrange

query: Into which category would you place C#CCOC(=O)N[C@H](C=CCCCC)c1ccccc1 ?
result: top end

query: Into which category would you place C=C[C@H](C)[C@H](OC(=O)Nc1ccc(SC)cc1)c1ccc(O)c2ccccc12 ?
result: bottom end

query: Into which category would you place COCCCNC(=O)[C@@]1(C)c2ccccc2C(=O)N(c2ccc(C)cn2)[C@H]1c1ccc(CO)cc1 ?
result: bottom end

query: Into which category would you place C[N+](C)(C)CCCCCCNC(=O)[C@@H]1C[C@@H]2C(=O)NCC(=O)N2[C@@H]1c1cccc(OCCO)c1 ?
result: bottom end

query: Into which category would you place CN(C)CCCNC(=O)[C@@]1(Cc2ccccc2I)c2ccccc2C(=O)N(Cc2ccccc2Cl)[C@H]1c1ccc(CO)cc1 ?
result: top end

query: Into which category would you place COC(=O)[C@@]1(Cc2ccc(F)cc2)[C@H]2c3cc(C(=O)N(C)C)n(CCSCCO)c3C[C@H]2CN1C(=O)c1ccccc1 ?
result: midrange

query: Into which category would you place C=C(C(=O)CC[C@H](OC(=O)c1cccnc1)c1ccc(OCCO)cc1)C(C)C ?
result: bottom end

query: Into which category would you place COC(=O)[C@@]1(Cc2ccc(F)cc2)[C@H]2c3cc(C(=O)N4CCCC4)n(Cc4ccccc4)c3C[C@H]2CN1C(=O)c1ccccc1 ?
result: top end

query: Into which category would you place C=CC[C@]1(C(=O)N2CCOCC2)N=C(c2ccc(OCCCO)cc2)O[C@H]1c1ccccc1CN=[N+]=[N-] ?
result: midrange

query: Into which category would you place C[N+](C)(C)CCCC[C@@H]1NC(=O)[C@H]2C[C@@H](C(=O)NCCCCCCN)[C@@H](c3cccc(OCCO)c3)N2C1=O ?
result: top end

query: Into which category would you place C[N+](C)(C)CCCCNC(=O)[C@H]1C[C@H]2C(=O)NCC(=O)N2[C@H]1c1ccc(O)cc1 ?
result: top end

query: Into which category would you place COc1ccc([Si](C)(C)[C@@H]2[C@@H](CCO)O[C@]3(C(=O)N(Cc4ccccc4)c4ccc(N5CCCCC5=O)cc43)[C@H]2C)cc1 ?
result: midrange

query: Into which category would you place C=CC[C@]1(C(=O)N(C)C)N=C(c2ccc(OCCCO)cc2)O[C@H]1c1ccccc1 ?
result: midrange

query: Into which category would you place CN1C(=O)C2C=CC(C(O)C3CCCCC3)N(N(c3ccccc3)c3ccccc3)C2C1=O (stereo not given) ?
result: top end
